Field: Emax. Provide a value for each of the molecules that follow.
Target: human kappa opioid receptor (hKOR) (Homo sapiens, UniProt P41145)
Construct: expressed in transfected cells; host or cells: HEK-293 cells, transient transfection with Fugene6
Sequence (P41145 whole entry): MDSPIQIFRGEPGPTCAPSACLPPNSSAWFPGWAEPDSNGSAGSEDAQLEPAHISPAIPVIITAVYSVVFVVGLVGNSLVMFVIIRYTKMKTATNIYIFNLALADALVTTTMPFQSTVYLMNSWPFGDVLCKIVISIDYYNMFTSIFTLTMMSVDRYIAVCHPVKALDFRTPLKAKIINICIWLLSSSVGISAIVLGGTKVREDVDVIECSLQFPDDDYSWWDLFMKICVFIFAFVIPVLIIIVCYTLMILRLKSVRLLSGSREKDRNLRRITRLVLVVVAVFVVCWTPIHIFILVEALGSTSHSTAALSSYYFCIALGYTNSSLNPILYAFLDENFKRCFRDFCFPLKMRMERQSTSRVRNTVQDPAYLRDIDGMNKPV
Experiment: cell-based
Conditions: HEK293, read-out: hKOR Efficacy(%)
Square brackets hold non-standard residues; d marks the D form. Peptide text beside a SMILES is read from it. * marks the point of attachment. Piperidin1yl(4-NH2,4-COOH) = NC1(C(=O)O)CCN(*)CC1; Homopiperazine(4-amidino) = N=C(N)N1CCCN(*)CC1; d(hArg) = N=C(N)NCCCC[C@@H](N)C(=O)O; dAgb = N=C(N)NCC[C@@H](N)C(=O)O; Homopiperazinyl = C1CNCCN(*)C1; dAgp = N=C(N)NC[C@@H](N)C(=O)O; dNle = CCCC[C@@H](N)C(=O)O
// return numeric value only (unit: %, not printed)

INPUT: Identify the measured Emax of CCCC[C@@H](NC(=O)[C@@H](Cc1ccccc1)NC(=O)[C@H](N)Cc1ccccc1)C(=O)N[C@H](CNC(=N)N)C(=O)N1CCCNCC1 [Compound (21)] (H-[dF][dF][dNle][dAgp]-Homopiperazinyl) for human kappa opioid receptor (hKOR) (Homo sapiens, UniProt P41145).
OUTPUT: 99

INPUT: Identify the measured Emax of CC(C)C[C@@H](NC(=O)[C@@H](Cc1ccccc1)NC(=O)[C@H](N)Cc1ccccc1)C(=O)N[C@H](CCCCN)C(=O)N1CCC2(CC1)C(=O)NCN2c1ccccc1 for human kappa opioid receptor (hKOR) (Homo sapiens, UniProt P41145).
OUTPUT: 101

INPUT: Identify the measured Emax of CC(C)C[C@@H](NC(=O)[C@@H](Cc1ccccc1)NC(=O)[C@H](N)Cc1ccccc1)C(=O)N[C@H](CCCCNC(=N)N)C(=O)N1CCC(N)(C(=O)O)CC1 [Compound (8)] (H-[dF][dF][dL][d(hArg)]-{Piperidin1yl(4-NH2,4-COOH)}) for human kappa opioid receptor (hKOR) (Homo sapiens, UniProt P41145).
OUTPUT: 96

INPUT: Identify the measured Emax of CC(C)C[C@@H](NC(=O)[C@@H](Cc1ccccc1)NC(=O)[C@H](N)Cc1ccccc1)C(=O)N[C@H](CCCCN)C(=O)N1CCC(n2c(=O)[nH]c3ccccc32)CC1 for human kappa opioid receptor (hKOR) (Homo sapiens, UniProt P41145).
OUTPUT: 100

INPUT: Identify the measured Emax of CC(C)C[C@@H](NC(=O)[C@@H](Cc1ccccc1)NC(=O)[C@H](N)Cc1ccccc1)C(=O)N[C@H](CCCCN)C(=O)N1CCN(S(=O)(=O)c2ccccc2)CC1 for human kappa opioid receptor (hKOR) (Homo sapiens, UniProt P41145).
OUTPUT: 101

INPUT: Identify the measured Emax of CC(C)C[C@@H](NC(=O)[C@@H](Cc1ccccc1)NC(=O)[C@H](N)Cc1ccccc1)C(=O)N[C@H](CCCCN)C(=O)N1CCC(N2CCC[C@H]2C(=O)O)CC1 for human kappa opioid receptor (hKOR) (Homo sapiens, UniProt P41145).
OUTPUT: 92

INPUT: Identify the measured Emax of CC(C)C[C@@H](NC(=O)[C@@H](Cc1ccccc1)NC(=O)[C@H](N)Cc1ccccc1)C(=O)N[C@H](CCCCN)C(=O)NCc1cn2ccccc2n1 for human kappa opioid receptor (hKOR) (Homo sapiens, UniProt P41145).
OUTPUT: 101

INPUT: Identify the measured Emax of CC(C)C[C@@H](NC(=O)[C@@H](Cc1ccccc1)NC(=O)[C@H](N)Cc1ccccc1)C(=O)N[C@H](CCCCN)C(=O)NCc1ccc2[nH]c(=O)[nH]c2c1 for human kappa opioid receptor (hKOR) (Homo sapiens, UniProt P41145).
OUTPUT: 99

INPUT: Identify the measured Emax of CC(C)C[C@@H](NC(=O)[C@@H](Cc1ccccc1)NC(=O)[C@H](N)Cc1ccccc1)C(=O)N[C@H](CCCCN)C(=O)NCC1OCCO1 for human kappa opioid receptor (hKOR) (Homo sapiens, UniProt P41145).
OUTPUT: 98

INPUT: Identify the measured Emax of CC(C)C[C@@H](NC(=O)[C@@H](Cc1ccccc1)NC(=O)[C@H](N)Cc1ccccc1)C(=O)N[C@H](CCCCN)C(=O)N1CCC2(CCNC2=O)CC1 for human kappa opioid receptor (hKOR) (Homo sapiens, UniProt P41145).
OUTPUT: 101

INPUT: Identify the measured Emax of CC(C)C[C@@H](NC(=O)[C@@H](Cc1ccccc1)NC(=O)[C@H](N)Cc1ccccc1)C(=O)N[C@H](CCCN)C(=O)N1CCC(CC(=O)O)CC1 for human kappa opioid receptor (hKOR) (Homo sapiens, UniProt P41145).
OUTPUT: 99

INPUT: Identify the measured Emax of CC(C)C[C@@H](NC(=O)[C@@H](Cc1ccccc1)NC(=O)[C@H](N)Cc1ccccc1)C(=O)N[C@H](CCNC(=N)N)C(=O)N1CCC(N)(C(=O)O)CC1 [Compound (11)] (H-[dF][dF][dL][dAgb]-{Piperidin1yl(4-NH2,4-COOH)}) for human kappa opioid receptor (hKOR) (Homo sapiens, UniProt P41145).
OUTPUT: 82

INPUT: Identify the measured Emax of CC(C)C[C@@H](NC(=O)[C@@H](Cc1ccccc1)NC(=O)[C@H](N)Cc1ccccc1)C(=O)N[C@H](CCCN)C(=O)NCCN1CCN(CC(N)=O)CC1 for human kappa opioid receptor (hKOR) (Homo sapiens, UniProt P41145).
OUTPUT: 96

INPUT: Identify the measured Emax of CC(C)C[C@@H](NC(=O)[C@@H](Cc1ccccc1)NC(=O)[C@H](N)Cc1ccccc1)C(=O)N[C@H](CCCNC(=N)N)C(=O)N1CCCN(C(=N)N)CC1 [Compound (24)] (H-[dF][dF][dL][dR]-{Homopiperazine(4-amidino)}) for human kappa opioid receptor (hKOR) (Homo sapiens, UniProt P41145).
OUTPUT: 93

INPUT: Identify the measured Emax of CC(C)C[C@@H](NC(=O)[C@@H](Cc1ccccc1)NC(=O)[C@H](N)Cc1ccccc1)C(=O)N[C@H](CCCCN)C(=O)N1CCCN(C(=N)N)CC1 for human kappa opioid receptor (hKOR) (Homo sapiens, UniProt P41145).
OUTPUT: 92

INPUT: Identify the measured Emax of CC(C)C[C@@H](NC(=O)[C@@H](Cc1ccccc1)NC(=O)[C@H](N)Cc1ccccc1)C(=O)N[C@H](CCCCN)C(=O)N1CCN(c2nccs2)CC1 for human kappa opioid receptor (hKOR) (Homo sapiens, UniProt P41145).
OUTPUT: 92

INPUT: Identify the measured Emax of Cc1nnc(C)n1C1CCN(C(=O)[C@@H](CCCCN)NC(=O)[C@@H](CC(C)C)NC(=O)[C@@H](Cc2ccccc2)NC(=O)[C@H](N)Cc2ccccc2)CC1 for human kappa opioid receptor (hKOR) (Homo sapiens, UniProt P41145).
OUTPUT: 95

INPUT: Identify the measured Emax of CC(C)C[C@@H](NC(=O)[C@@H](Cc1ccccc1)NC(=O)[C@H](N)Cc1ccccc1)C(=O)N[C@H](CCCN)C(=O)NCCN1CCN(CC(=O)O)CC1 for human kappa opioid receptor (hKOR) (Homo sapiens, UniProt P41145).
OUTPUT: 102

INPUT: Identify the measured Emax of CC(C)C[C@@H](NC(=O)[C@@H](Cc1ccccc1)NC(=O)[C@H](N)Cc1ccccc1)C(=O)N[C@H](CCCCN)C(=O)N1CCN(c2ncccn2)CC1 for human kappa opioid receptor (hKOR) (Homo sapiens, UniProt P41145).
OUTPUT: 98

INPUT: Identify the measured Emax of CC(C)C[C@@H](NC(=O)[C@@H](Cc1ccccc1)NC(=O)[C@H](N)Cc1ccccc1)C(=O)N[C@H](CCCN)C(=O)N1CCC(N2CCC[C@H]2C(=O)O)CC1 for human kappa opioid receptor (hKOR) (Homo sapiens, UniProt P41145).
OUTPUT: 92

* * *

Field: Emax. Provide a value for each of the molecules that follow.
Biological target: human kappa opioid receptor (hKOR) (Homo sapiens)
Construct: expressed in transfected cells; host or cells: HEK-293 cells, transient transfection with Fugene6
Assay: cell-based
Details: HEK293, read-out: hKOR Efficacy(%)
Square brackets hold non-standard residues; d marks the D form. Peptide text beside a SMILES is read from it. * marks the point of attachment. Piperidinyl(4-(1-Pro-OH)) = O=C(O)[C@@H]1CCCN1C1CCN(*)CC1; d(hArg) = N=C(N)NCCCC[C@@H](N)C(=O)O
// return numeric value only (unit: %, not printed)

INPUT: Reported Emax, molecule CC(C)C[C@@H](NC(=O)[C@@H](Cc1ccccc1)NC(=O)[C@H](N)Cc1ccccc1)C(=O)N[C@H](CCCCNC(=N)N)C(=O)N1CCC(N2CCC[C@H]2C(=O)O)CC1 [Compound (5)] (H-[dF][dF][dL][d(hArg)]-{Piperidinyl(4-(1-Pro-OH))}) : ____
OUTPUT: 98

INPUT: Reported Emax, molecule CCN1CCCN(C(=O)[C@@H](CCCN)NC(=O)[C@@H](CC(C)C)NC(=O)[C@@H](Cc2ccccc2)NC(=O)[C@H](N)Cc2ccccc2)CC1 : ____
OUTPUT: 93

INPUT: Reported Emax, molecule CC(C)C[C@@H](NC(=O)[C@@H](Cc1ccccc1)NC(=O)[C@H](N)Cc1ccccc1)C(=O)N[C@H](CCCCN)C(=O)N1CCC(N)(C(=O)O)CC1 : ____
OUTPUT: 99

INPUT: Reported Emax, molecule CC(C)C[C@@H](NC(=O)[C@@H](Cc1ccccc1)NC(=O)[C@H](N)Cc1ccccc1)C(=O)N[C@H](CCCCN)C(=O)N1CCC(n2cc(-c3ccccc3)[nH]c2=O)CC1 : ____
OUTPUT: 95

INPUT: Reported Emax, molecule CNCCCC[C@@H](NC(=O)[C@@H](CC(C)C)NC(=O)[C@@H](Cc1ccccc1)NC(=O)[C@H](N)Cc1ccccc1)C(=O)N1CCCN(C(=N)N)CC1 : ____
OUTPUT: 97
